# assay: Circular dichroism spectroscopy (helicity)
# Assay type: physicochemical
# settings: pH 7, 5° C., 100 μM peptide (b86 prints 100 mM)
Bridges are numbered along the chain shown (N, C = ends). Roman numbers before positions name the chains, in order. Where no end group is shown, it is not given here.
measuredAttribute: helix content judged by CD spectroscopy (%)
# value in %; strip the unit string

Q. Requested read-out: helix content judged by CD spectroscopy. Entry: CGGEIRALKYEIARLKQ----KKRALEQKIAALEGGC [CSP-1r] (not fully specified (some residues); cysteine pairing not given here)
A. 90

Q. Requested read-out: helix content judged by CD spectroscopy. Entry: CGGEIRALKYEIARLKQ----KKRALEQKIAALEGGC [CSP-1o] (disulfide I:1-II:16; not fully specified)
A. 20
